Kindly state IC50 for each of the entries shown.
Molecular target: Genome polyprotein (dengue virus type 2, UniProt P29990)
Sequence (P29990 2492-3391 limits assumed): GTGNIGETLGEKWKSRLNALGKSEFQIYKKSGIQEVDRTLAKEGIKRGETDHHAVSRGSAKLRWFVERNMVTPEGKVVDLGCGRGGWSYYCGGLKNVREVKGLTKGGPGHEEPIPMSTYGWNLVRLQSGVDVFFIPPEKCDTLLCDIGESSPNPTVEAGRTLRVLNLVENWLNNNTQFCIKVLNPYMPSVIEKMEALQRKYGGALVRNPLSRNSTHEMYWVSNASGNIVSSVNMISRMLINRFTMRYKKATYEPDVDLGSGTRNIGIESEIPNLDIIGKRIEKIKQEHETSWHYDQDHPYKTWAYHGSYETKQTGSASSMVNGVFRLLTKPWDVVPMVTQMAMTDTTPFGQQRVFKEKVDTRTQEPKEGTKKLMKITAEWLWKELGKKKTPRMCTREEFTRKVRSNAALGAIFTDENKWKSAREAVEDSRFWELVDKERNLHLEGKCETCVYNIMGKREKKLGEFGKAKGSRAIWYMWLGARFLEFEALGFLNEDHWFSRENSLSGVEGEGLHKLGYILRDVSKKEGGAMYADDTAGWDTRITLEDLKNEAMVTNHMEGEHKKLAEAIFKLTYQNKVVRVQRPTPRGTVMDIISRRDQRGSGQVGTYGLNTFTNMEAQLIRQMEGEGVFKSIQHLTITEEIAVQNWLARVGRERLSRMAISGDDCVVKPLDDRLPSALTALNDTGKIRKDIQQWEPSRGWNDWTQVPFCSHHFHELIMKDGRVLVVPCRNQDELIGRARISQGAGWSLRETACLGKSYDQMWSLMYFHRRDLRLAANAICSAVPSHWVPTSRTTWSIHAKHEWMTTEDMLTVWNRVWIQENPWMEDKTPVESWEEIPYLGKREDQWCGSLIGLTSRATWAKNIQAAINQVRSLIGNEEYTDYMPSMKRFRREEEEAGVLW
Assay: flavivirus cap methylation enzyme inhibition – biochemical, confirmation dose response, primary screen (AID 588689)
Type: functional
Activity calls are given as the source filed them.

Molecule | IC50
N#C/C(=C\c1ccc(C#N)cc1)C(=O)c1ccccc1 | > 100 µM (active)

# map each molecule to its IC50
1. CCOc1cc([N+](=O)[O-])cc(/C=C2/NC(=O)N(Cc3ccccc3F)C2=O)c1O
2. COCC/N=c1\scc(-c2cccs2)n1/N=C/c1ccc(O)c(O)c1O
3. Cc1cc(C)c(Nc2cc(S(=O)(=O)O)c(N)c3c2C(=O)c2ccccc2C3=O)c(C)c1 [ACID BLUE 129]
4. CCCCCOc1ccc(C2C(C(=O)c3ccc(C)o3)=C(O)C(=O)N2c2cc(C)on2)cc1 (stereo not given)

1. 58.8 µM (active)
2. > 100 µM (active)
3. 21.5 µM (active)
4. 31.6 µM (active)

* * *

Target: Short transient receptor potential channel 4 (Mus musculus, UniProt Q9QUQ5)
Sequence (Q9QUQ5 whole entry): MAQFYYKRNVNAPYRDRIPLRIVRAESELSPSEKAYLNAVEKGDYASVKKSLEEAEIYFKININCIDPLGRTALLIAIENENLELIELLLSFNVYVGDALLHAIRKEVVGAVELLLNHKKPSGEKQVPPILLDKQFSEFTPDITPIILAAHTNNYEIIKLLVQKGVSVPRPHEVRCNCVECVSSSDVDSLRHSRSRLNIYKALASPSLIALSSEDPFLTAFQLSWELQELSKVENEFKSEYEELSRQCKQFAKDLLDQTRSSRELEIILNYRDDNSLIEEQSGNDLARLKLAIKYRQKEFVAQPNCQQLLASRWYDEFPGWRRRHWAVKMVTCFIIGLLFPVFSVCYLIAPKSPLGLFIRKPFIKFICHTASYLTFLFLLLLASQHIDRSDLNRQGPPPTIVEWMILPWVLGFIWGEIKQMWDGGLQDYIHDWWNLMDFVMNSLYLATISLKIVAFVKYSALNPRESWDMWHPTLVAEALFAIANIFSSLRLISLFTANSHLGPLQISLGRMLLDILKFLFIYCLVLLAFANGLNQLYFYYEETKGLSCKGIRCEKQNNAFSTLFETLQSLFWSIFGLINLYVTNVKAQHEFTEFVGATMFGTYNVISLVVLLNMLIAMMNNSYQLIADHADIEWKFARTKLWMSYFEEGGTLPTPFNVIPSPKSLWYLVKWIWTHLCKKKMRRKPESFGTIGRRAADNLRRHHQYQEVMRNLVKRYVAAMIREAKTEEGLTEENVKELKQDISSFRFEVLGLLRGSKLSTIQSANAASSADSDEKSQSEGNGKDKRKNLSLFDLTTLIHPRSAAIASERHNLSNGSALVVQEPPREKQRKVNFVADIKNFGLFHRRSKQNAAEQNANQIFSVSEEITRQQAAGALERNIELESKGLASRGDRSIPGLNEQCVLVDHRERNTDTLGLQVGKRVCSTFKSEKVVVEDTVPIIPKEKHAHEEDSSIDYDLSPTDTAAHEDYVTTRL
Test: calcium entry via TRPC4 opening agents – cell-based, HEK293 TRPC4/mu-opioid, Fluo-4 calcium, dose response (AID 434937)
Format: functional
Calls of active or inactive are those of the source.
For each entry below, report its EC50 value.

Molecule | Reported property | Reading
CCN(Cc1ccccc1)S(=O)(=O)c1ccc(C(=O)N(CCCN(C)C)c2nc3c(F)cccc3s2)cc1 | EC50 | 2.11 µM (active)
O=S(=O)(c1ccccc1)c1nnn2c1nc(NC1CCN(Cc3ccccc3)CC1)c1cc(Cl)ccc12 | EC50 | 6.68 µM (active)
O=C(C1CCCN(Cc2ccccc2)C1)N1CCc2ccccc2C1 (centres undefined) | EC50 | 0.133 µM (active)

In the following, a different molecule is considered.
Fill in EC50 for record CN(C)C(CNC(=O)NC1CCCCC1)c1cccnc1 (centres undefined) 0.06 µM (active)

* * *

Answer each item with its documented EC50.
Target: Streptokinase A (Streptococcus pyogenes serotype M1)
Sequence (P10520 whole entry): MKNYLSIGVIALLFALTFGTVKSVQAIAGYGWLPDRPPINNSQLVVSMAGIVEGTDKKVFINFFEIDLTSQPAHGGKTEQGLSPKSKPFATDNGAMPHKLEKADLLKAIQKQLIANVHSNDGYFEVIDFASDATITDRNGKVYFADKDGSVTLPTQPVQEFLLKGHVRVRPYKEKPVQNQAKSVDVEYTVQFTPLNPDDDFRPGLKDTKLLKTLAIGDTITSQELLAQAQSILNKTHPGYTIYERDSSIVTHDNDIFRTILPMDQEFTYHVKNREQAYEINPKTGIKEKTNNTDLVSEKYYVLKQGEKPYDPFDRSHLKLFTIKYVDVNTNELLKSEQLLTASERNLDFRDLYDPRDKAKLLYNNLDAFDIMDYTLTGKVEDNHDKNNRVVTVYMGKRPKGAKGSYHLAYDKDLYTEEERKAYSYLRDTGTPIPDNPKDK
Assay: viability-normalized secreted streptokinase activity reduction – plasminogen activation absorbance, OD405, dose response (AID 1914);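 also: secreted streptokinase activity via plasminogen activation per viability signal from cell pellet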
Type: functional, Streptococcus pyogenes M1 GAS
Active and inactive are the calls of the source.

Below, 8 compounds whose answers are already recorded.
Compound | EC50
CCC(/C=C1\Sc2ccc3ccccc3c2N1C)=C\c1sc2ccc3ccccc3c2[n+]1C | > 150 µM (not active)
COc1ccc(Br)cc1/C=C/c1ccc2cccc(O)c2n1 | > 150 µM (not active)
CCOc1ccc(C)cc1S(=O)(=O)NC1CCCCCC1 | > 150 µM (not active)
CCOc1ccc2[nH]c3c(N4CCc5ccccc5C4)ncnc3c2c1 | > 150 µM (not active)
Nc1nonc1-n1nnc(C(=O)N/N=C/c2cc(Cl)ccc2O)c1CN1CCCCCC1 | > 150 µM (not active)
COc1cc(C)c(C(=O)CC(=O)c2c(C)cc(OC)cc2C)c(C)c1 | 68.7 µM (active)
CC(C)c1ccc2[nH]c(O)c(N=NC(=O)c3cccc(S(=O)(=O)N4CCCCC4)c3)c2c1 | > 150 µM (not active)
C=CCn1c(Oc2ccc(C(=O)OC)cc2)nc2c1c(=O)n(C)c(=O)n2C | > 150 µM (not active)

Value sought for every listed compound: EC50.
1. O=[N+]([O-])c1ccc(N=Nc2ccc(O)cc2O)cc1
2. O=C1C=CC(=O)N1CCNc1ncc(C(F)(F)F)cc1Cl
3. Cc1ccc(NC(=S)NC2CCSc3ccccc32)cc1C (configuration not stated)

1: > 50 µM (not active); 2: > 150 µM (not active); 3: 24.3 µM (active)

Report its EC50 with Streptokinase A (Streptococcus pyogenes serotype M1) as the test system: Cc1cccc(NC(=O)C(=O)NNC(=O)c2ccc(C(C)(C)C)cc2)c1 > 150 µM (not active)

* * *

Measurement record for Cytochrome P450 2C9 (Homo sapiens); quantity recorded: AC50.

Worked cases, AC50 given:
Compound | AC50
O=C(O)[C@H]1CCCC[C@@H]1c1c2ccc(=O)c(O)c-2oc2c(O)c(O)ccc12 | 6.31 µM (inconclusive)
NS(=O)(=O)c1ccc(/N=N\c2cccnc2O)cc1 | 3.16 µM (inconclusive)
CCOc1ccc(C(=O)Nc2cccc(-c3nc4cccnc4o3)c2)cc1Cl | 14.1 µM (inconclusive)
CCOc1ccc(N/N=C(/C#N)C(N)=O)cc1 | 15.8 µM (inconclusive)
N#CCSc1nc(N)c(C#N)c(C2CCCCC2)c1C#N | 12.6 µM (inconclusive)

Report AC50 for every entry below.
1. Cc1nc2cnc(Oc3ccccc3)nc2n(C2CC2)c1=O
2. CC(=O)c1ccc(NC(=O)C2CC(c3ccc(F)cc3)=NO2)cc1 (centres undefined)
3. COc1ccc2[nH]cc(CCNc3nc(-c4ccoc4)nc4ccccc34)c2c1
4. Cc1cccc(NC(S)=NNC(=O)CC(C)O)c1C (centres undefined)

1: 12.6 µM (inconclusive); 2: 1.12 µM (inconclusive); 3: 1 µM (inconclusive); 4: 0.00708 µM (inconclusive)

* * *

Molecular target: Ubiquitin-conjugating enzyme E2 N (Homo sapiens, UniProt P61088);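 also: Dose-response confirmation in a TR-FRET assay detecting UBC13-driven polyubiquitin chain formation, inhibition measured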
Sequence (P61088 whole entry): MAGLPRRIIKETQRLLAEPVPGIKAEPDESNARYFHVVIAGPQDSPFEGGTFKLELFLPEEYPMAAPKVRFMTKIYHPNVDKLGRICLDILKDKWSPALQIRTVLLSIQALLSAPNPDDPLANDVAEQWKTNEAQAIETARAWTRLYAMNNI
Assay type: functional
Active and inactive are the calls of the source.
Please state which outcome applies, choosing from T = active, F = inactive

Example cases with answers are listed next.
Smiles entry | Tested system | Classification
CC1(C)Cc2c(sc(NC(=O)COc3ccc(Cl)cc3Cl)c2C(N)=O)C(C)(C)N1 | Ubiquitin-conjugating enzyme E2 N (Homo sapiens, UniProt P61088) | T
COc1ccc(-c2oc(=O)c3cc(OC)c(OC)cc3c2C#CC2(O)CCCCC2)cc1 | Ubiquitin-conjugating enzyme E2 N (Homo sapiens, UniProt P61088) | F
Cc1nc(N)sc1C(=O)NN | Ubiquitin-conjugating enzyme E2 N (Homo sapiens, UniProt P61088) | F

Please turn your attention to the following entry.
Recorded call for FC(F)(F)c1cc(CCN2CCNC[C@@H]2Cc2ccccc2)cc(C(F)(F)F)c1 ? F

* * *

Molecular target: UniProtKB P55789
Sequence (P55789 whole entry): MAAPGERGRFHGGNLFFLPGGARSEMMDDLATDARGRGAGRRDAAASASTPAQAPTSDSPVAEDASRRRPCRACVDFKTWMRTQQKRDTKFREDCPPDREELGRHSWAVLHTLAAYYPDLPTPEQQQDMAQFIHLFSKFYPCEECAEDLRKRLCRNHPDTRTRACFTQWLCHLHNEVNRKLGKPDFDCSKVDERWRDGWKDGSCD
Assay: ALR-catalysed DTT oxidation blockers – biochemical, H2O2 detection, luminescence, cherry-pick, dose response (AID 493248)
The source made the active and inactive calls.
Reported property: AC50

Take a look at these entries with their results.
Smiles entry | Reported property | Reading
O=S(=O)(Nc1ccc(N2CCCCC2)cc1)c1cccc2cccnc12 | AC50 | 0.723 µM (active)
O=C(Nc1ccc(N2CCCCC2)cc1)c1cccnc1 | AC50 | 21.6 µM (active)

Then there is this molecule:
Could you please provide reported AC50 for CC(=O)N1CCN=C1SCc1cccc(F)c1 ? Thanks! 6.74 µM (active)

* * *

For each entry below, report its AC50 value.
Target: Cytochrome P450 2C19 (Homo sapiens, UniProt P33261)
Sequence (P33261 whole entry): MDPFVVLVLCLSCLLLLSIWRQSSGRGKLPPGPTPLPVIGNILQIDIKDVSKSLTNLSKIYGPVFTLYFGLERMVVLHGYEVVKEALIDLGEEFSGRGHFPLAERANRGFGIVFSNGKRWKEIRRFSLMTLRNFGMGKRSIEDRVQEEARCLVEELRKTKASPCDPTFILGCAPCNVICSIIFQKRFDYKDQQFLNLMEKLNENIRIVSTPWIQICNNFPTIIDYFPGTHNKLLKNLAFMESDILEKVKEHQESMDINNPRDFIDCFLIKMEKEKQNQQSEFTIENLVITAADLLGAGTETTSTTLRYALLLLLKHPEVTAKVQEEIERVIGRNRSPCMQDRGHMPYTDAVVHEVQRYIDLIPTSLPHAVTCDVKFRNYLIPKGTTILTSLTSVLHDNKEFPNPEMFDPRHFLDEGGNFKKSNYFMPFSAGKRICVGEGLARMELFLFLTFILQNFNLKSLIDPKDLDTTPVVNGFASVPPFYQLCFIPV
Assay: Cytochrome panel assay with activity outcomes. Panel member name: p450-cyp2c19 Compounds with AC50 equal or less than 10 uM are considered active
Format: functional
Conditions: read-out: AC50

Molecule | AC50
CN(C)c1ccc(-c2ccc3ncnc(N4CCNCC4)c3c2)cc1 | 25.1 µM (inconclusive)

Kindly give each listed record's AC50.
1. COC(=O)[C@@]1(Cc2ccc(F)cc2)[C@H]2c3cc(C(=O)N(C)C)n(Cc4c(CO)ncc(C)c4O)c3C[C@H]2CN1C(=O)c1ccccc1
2. CCCCCCCCN[C@@H](C)[C@H](O)c1ccc(SC(C)C)cc1
3. O=S(=O)(NCCNC/C=C\c1ccc(Br)cc1)c1cccc2cnccc12

1. 25.1 µM (inconclusive)
2. 10 µM (inconclusive)
3. 15.8 µM (inconclusive)

* * *

Field: EC50. Provide a value for each of the compounds that follow.
Target: RNA-binding protein pos-1 (Caenorhabditis elegans, UniProt G5EF15)
Sequence (G5EF15 whole entry): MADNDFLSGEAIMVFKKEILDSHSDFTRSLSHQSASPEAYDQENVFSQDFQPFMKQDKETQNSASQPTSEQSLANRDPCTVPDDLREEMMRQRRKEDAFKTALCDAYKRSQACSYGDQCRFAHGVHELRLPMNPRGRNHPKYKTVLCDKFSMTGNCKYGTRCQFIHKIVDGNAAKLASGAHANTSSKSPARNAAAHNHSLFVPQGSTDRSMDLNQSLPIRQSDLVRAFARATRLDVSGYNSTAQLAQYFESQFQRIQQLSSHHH
Test: disruptors of C. elegans POS-1 RNA interaction – biochemical, fluorescence polarization, dose response (AID 1964);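 also: purified POS-1 fused to maltose binding protein made in E. coli; potency of compounds blocking POS-1 binding to fluorescent RNA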
The source made the active and inactive calls.

Compound | Tested system | EC50
O=c1oc2ccc(Cl)cc2nc1/C=C(\O)c1ccco1 | RNA-binding protein pos-1 (Caenorhabditis elegans, UniProt G5EF15) | > 300 µM (not active)

Batch request: EC50 for each of the following compounds.
1. Cc1nn(C(C)C(=O)N2CCOCC2)c(=O)c2nn(-c3ccccc3)c(C)c12 (centres undefined)
2. CC(=O)Nc1ccc(NC(=O)C(C)OC(=O)/C(C#N)=C/c2ccc(N(C)C)cc2)cc1 (centres undefined)
3. CN(C)c1cccc2c1c(NS(=O)(=O)c1cn(C)cn1)nn2C

> 300 µM (not active)
26.9 µM (active)
89.8 µM (active)
